- SYSTEM_NAME: T1, human glucagon receptor (human, UniProt P47871 26-477)
- T1 construct: whole, on cells; Used as crude membranes of stably transfected HEK293 cells; also called hGcgR; hGLcgR
- MEASUREMENT_NOTES: SPA, [125I]-Gcg displacement, hGcgR membranes
Square brackets hold non-standard residues; d marks the D form. Side chains are listed from the residue outwards. Ends that are not written are not given here. * marks the point of attachment. C20 diacid = O=C(O)CCCCCCCCCCCCCCCCCCC(=O)*; αMeL = CC(C)C[C@](C)(N)C(=O)O; αMeK = C[C@](N)(CCCCN)C(=O)O; Dab = NCC[C@H](N)C(=O)O; AEEA = NCCOCCOCC(=O)O; Aib = CC(C)(N)C(=O)O
For each of the binders below, state its pKi.
One number for each entry, as −log10 of the molar value.

As a guide, the following entries are already answered.
INSERT INTO assay_data (binder, data_value) VALUES
  ('H[Aib]EGTFTSDYSI[αMeL]LDKK([Dab-AEEA-Dab-AEEA-C20 diacid])AQ[αMeK]AFIQYLLA[Aib]GPSSGAPKPS-NH2 [Example 18]', 7.30),
  ('FXEGTXTSDYSIXLDEKAQXAFIEYLIEGGPSSGAPPPS (Aib2; αMeF6; αMeL13; K17((2-[2-(2-Amino-ethoxy)-ethoxy]-acetyl)2-(γ-Glu)-CO-(CH2)18-CO2H); Aib20; C-terminal NH2) [Example 119]', 7.51),
  ('HXEGTXTSDYSIXLDEKAQXEFIEYLIEGGPSSGAPPPS (Aib2; αMeF(2F)6; αMeL13; K17((2-[2-(2-Amino-ethoxy)-ethoxy]-acetyl)2-(γ-Glu)-CO-(CH2)18-CO2H); Aib20; C-terminal NH2) [Example 163]', 6.93),
  ('YXEGTXTSDXSIXLDKKAQXEFIXYLIEGGPSSGAPPPS (Aib2; αMeF(2F)6; 4Pal10; αMeL13; K17((2-[2-(2-Amino-ethoxy)-ethoxy]-acetyl)-(γ-Glu)-(2-[2-(2-Amino-ethoxy)-ethoxy]-acetyl)-CO-(CH2)18-CO2H); Aib20; D-Glu24; C-terminal NH2) [Example 202]', 6.40),
  ('YXEGTFTSDYSIXLDXKAQXAFIEYLIEGGPSSGAPPPS (Aib2; αMeL13; Aib16; K17((2-[2-(2-Amino-ethoxy)-ethoxy]-acetyl)2-(γ-Glu)-CO-(CH2)18-CO2H); Aib20; C-terminal NH2) [Example 60]', 6.63);

Batch lookup, pKi per entry.
1. YXEGTXTSDYSIXLDEKAQXEFISYLIEGGPSSGAPPPS (Aib2; αMeF(2F)6; αMeL13; K17((2-[2-(2-Amino-ethoxy)-ethoxy]-acetyl)2-(γ-Glu)-CO-(CH2)18-CO2H); Aib20; C-terminal NH2) [Example 150]
2. YXEGTXTSDISILLDKKAQXAFIEYLIEGGPSSGAPPPS (Aib2; αMeF6; K17((2-[2-(2-Amino-ethoxy)-ethoxy]-acetyl)2-(γ-Glu)-CO-(CH2)18-CO2H); Aib20; C-terminal NH2) [Example 127]
3. YXEGTFTSDYSIXLDTKAQXAFIEYLIEGG (Aib2; αMeL13; K17((2-[2-(2-Amino-ethoxy)-ethoxy]-acetyl)2-(γ-Glu)-CO-(CH2)18-CO2H); Aib20; C-terminal NH2) [Example 65]
4. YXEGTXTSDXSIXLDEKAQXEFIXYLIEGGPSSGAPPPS (not printed (the compound name of this Example is missing from the table of Examples 6-287)) [Example 182]
5. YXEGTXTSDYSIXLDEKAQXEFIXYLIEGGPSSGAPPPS (Aib2; αMeF(2F)6; αMeL13; K17((2-[2-(2-Amino-ethoxy)-ethoxy]-acetyl)2-(γ-Glu)-CO-(CH2)18-CO2H); Aib20; Aad24; C-terminal NH2) [Example 147]
6. YXEGTXTSDYSIXLDEKAQXEFIEYLIEGG (Aib2; αMeF(2F)6; αMeL13; K17((2-[2-(2-Amino-ethoxy)-ethoxy]-acetyl)2-(γ-Glu)-CO-(CH2)18-CO2H); Aib20; C-terminal NH2) [Example 103]

1. 7.20
2. 7.36
3. 6.71
4. 6.25
5. 7.19
6. 7.39

// pKi lookup, key: XXEGTFTSDYSILLDKKAQXAFIEYLIEGGPSSGAPPPS (DesTyr1; Aib2; K17((2-[2-(2-Amino-ethoxy)-ethoxy]-acetyl)2-(γ-Glu)-CO-(CH2)18-CO2H); Aib20; C-terminal NH2) [Example 107]
6.52
